Origin of the recorded values: PubChem BioAssay

Reported composite z-score by item:
Tested on: Fibrinogen (Alexa647-labelled)
Assay: Alexa647-fibrinogen binding to printed small molecules – biochemical, small-molecule microarray, 635/667 nm fluorescence, artefact control for SMM control-protein annotation, profiling panel (AID 1131);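 also: z-score merges 667 nm fluorescence with per-spot signal-to-noise over triplicate slides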
Conditions: fibrinogen-A647 binding fluorescence, higher = more signal

Inquiry: Data request, read-out composite z-score, for COc1ccc([Si](C)(C)[C@@H]2[C@@H](CCO)O[C@]3(C(=O)N(Cc4cccc(N5CCCCC5=O)c4)c4ccccc43)[C@H]2C)cc1
Reply text: 0.825

Inquiry: Please report the recorded composite z-score for O=C1O[C@H](c2ccccc2)[C@H](c2ccccc2)N2[C@H]1[C@@H](C(=O)NC[C@H](O)c1ccccc1)[C@]1(C(=O)Nc3ccc(C#CC4(O)CCCCCC4)cc31)[C@H]2c1ccccc1OCCO .
Reply text: 0.494

Inquiry: I'd like to know its composite z-score. The molecule in question is O=C1O[C@@H](c2ccccc2)[C@@H](c2ccccc2)N2[C@@H](c3ccc(O)cc3)[C@]3(C(=O)Nc4ccccc43)[C@@H](C(=O)NC[C@H](O)c3ccccc3)[C@H]12
Reply text: -0.406

Inquiry: Returns the measured composite z-score for the input molecule. Input: COCCOC(=O)N1C(=O)[C@@]2(c3cc(C#CCC(C(=O)OC)C(=O)OC)ccc31)[C@H](c1ccc(OCCO)cc1)N1[C@H](c3ccccc3)[C@H](c3ccccc3)OC(=O)[C@H]1[C@@H]2C(=O)NC[C@H](O)c1ccccc1
Reply text: 0.952

Inquiry: Look at this molecule and give its reported composite z-score. C=C(C(=O)CC[C@@H](OC(=O)c1cccnc1)c1ccc(CO)o1)C(C)C
Reply text: 0.82

Inquiry: composite z-score for C=CCNC(=O)[C@@H]1[C@H]2C(=O)O[C@H](c3ccccc3)[C@H](c3ccccc3)N2[C@H](c2ccccc2OCCO)[C@@]12C(=O)N(C(=O)OCCOC)c1ccc(C#CCC(C(=O)OC)C(=O)OC)cc12 ?
Reply text: 0.896

Inquiry: I'd like to know its composite z-score. The molecule in question is C=C[C@H](OC)[C@@H](OC(=O)Nc1ccc(SC)cc1)c1ccc(OCCO)cc1
Reply text: -0.332

Inquiry: Query (molecule): CC1CC/C=C\[C@H]2OC34C=CCN(c5ccc6ccccc6c5)C(=O)[C@H]3N(CCCCCO)C(=O)[C@@H]4C2C(=O)O1 (some centres not stated) ; field requested: composite z-score
Reply text: -2.2

Inquiry: Param item = CCCNC(=O)[C@@]1(c2ccc([N+](=O)[O-])cc2)CC(=O)N(CC23CC4CC(CC(C4)C2)C3)[C@@H]1c1ccc(CO)cc1I ; retrieve measured composite z-score.
Reply text: -0.0329

Inquiry: // lookup composite z-score for [N-]=[N+]=NCc1ccccc1[C@H]1OC(c2ccc(OCCCO)cc2)=N[C@@]1(Cc1ccccc1)C(=O)O
Reply text: 0.472

Inquiry: What measured composite z-score goes with [N-]=[N+]=NCc1ccccc1C[C@]1(C(N)=O)N=C(c2ccc(OCCCO)cc2)O[C@H]1c1ccccc1N=[N+]=[N-] ?
Reply text: 0.751

Inquiry: Bench note: what composite z-score did COc1ccc(C(O)C2C=CC3C(=O)N(c4ccccc4)C(=O)C3N2Nc2ccccc2)c2ccccc12 (configuration not stated) show?
Reply text: -0.833

Inquiry: Form field: reported composite z-score of COC(=O)[C@@]1(Cc2ccc(OC)cc2)[C@H]2c3cc(C(=O)N(C)C)n(CCSCCO)c3C[C@H]2CN1C(=O)c1ccccc1
Reply text: 0.971

Inquiry: Look at this molecule and give its reported composite z-score. COc1ccc([Si](C)(C)[C@@H]2[C@@H](CCO)O[C@]3(C(=O)N(Cc4cccc(N(C=O)c5ccccc5)c4)c4ccccc43)[C@H]2C)cc1
Reply text: 0.508

* * *

Molecular target: Fibroblast growth factor 10 (Homo sapiens) (UniProt O15520)
Sequence (O15520 whole entry, looked up): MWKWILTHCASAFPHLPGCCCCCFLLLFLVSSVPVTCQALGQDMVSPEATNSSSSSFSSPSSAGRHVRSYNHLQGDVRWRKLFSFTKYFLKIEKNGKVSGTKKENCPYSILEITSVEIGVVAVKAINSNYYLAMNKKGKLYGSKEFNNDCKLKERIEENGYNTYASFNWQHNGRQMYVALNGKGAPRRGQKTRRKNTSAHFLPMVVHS
Experiment: compounds binding fibroblast growth factor 10 – biochemical, small-molecule microarray, 635 nm fluorescence, primary screen (AID 1102)
Conditions: FGF10 binding, fluorescence 635 nm, higher = more signal
VALUE_KIND: composite z-score

Reference set (2 entries):
O=[N+]([O-])c1ccc(C[n+]2ccc(CCCO)cc2)o1	1.54
C=CC[C@@]1(C(=O)OC)N=C(c2ccc(OCCCO)cc2)O[C@@H]1c1ccccc1CN=[N+]=[N-]	-0.216

Inquiry: Dear colleague, I am looking for the recorded composite z-score of the following compound: COCC1=C([C@H](O)CCc2ccccc2)[C@H](CO)[C@@H]2C(=O)N(Cc3ccccc3)C(=O)[C@@H]2C1
Reply text: 0.438

Inquiry: What does the data say about its composite z-score? Entry: COC(=O)[C@@]1(Cc2ccc(OC)cc2)[C@H]2c3cc(C(=O)N4CCCC4)n(C[C@H](O)CO)c3C[C@H]2CN1C(=O)c1ccccc1
Reply text: 0.974

* * *

Molecular target: NADPH oxidase 5 (Homo sapiens) (UniProt Q96PH1)
Sequence (Q96PH1 whole entry, looked up): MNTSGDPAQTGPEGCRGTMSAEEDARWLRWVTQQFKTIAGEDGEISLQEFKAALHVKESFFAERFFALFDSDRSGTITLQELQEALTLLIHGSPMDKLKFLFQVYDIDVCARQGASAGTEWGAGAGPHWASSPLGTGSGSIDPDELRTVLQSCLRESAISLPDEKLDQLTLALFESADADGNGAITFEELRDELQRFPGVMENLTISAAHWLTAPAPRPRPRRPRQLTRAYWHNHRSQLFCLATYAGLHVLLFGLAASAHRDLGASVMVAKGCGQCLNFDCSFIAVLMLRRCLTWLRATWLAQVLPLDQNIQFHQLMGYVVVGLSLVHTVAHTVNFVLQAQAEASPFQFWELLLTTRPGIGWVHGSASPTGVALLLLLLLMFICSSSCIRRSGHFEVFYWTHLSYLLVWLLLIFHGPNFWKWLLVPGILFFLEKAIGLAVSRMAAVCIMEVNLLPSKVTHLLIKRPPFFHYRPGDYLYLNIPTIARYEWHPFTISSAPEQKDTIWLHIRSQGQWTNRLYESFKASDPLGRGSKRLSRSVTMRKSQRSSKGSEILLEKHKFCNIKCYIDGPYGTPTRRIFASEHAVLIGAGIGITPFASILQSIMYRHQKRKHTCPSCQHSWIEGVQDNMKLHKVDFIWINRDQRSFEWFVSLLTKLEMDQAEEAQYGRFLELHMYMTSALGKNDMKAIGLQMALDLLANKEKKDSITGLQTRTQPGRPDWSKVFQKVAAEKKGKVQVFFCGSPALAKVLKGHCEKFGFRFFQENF
Assay: compounds shifting NOX5 Amplex Red fluorescence – cell-based, HEK293-NOX5, NOX inhibitor project, primary screen (AID 1161)
Details: HEK293-NOX5, ionomycin, 45 min, higher = more signal
We begin with a simple list: items and their reported z-score.
Lab note: record the figure alone, no unit after it.

As a guide, the following entries are already answered.
C=C(COC)/C(=C/C[C@H](OC(C)=O)c1ccccc1OCCO)c1cnc2ccccc2c1	-0.854
C/C=C/[C@H](CCn1cc([C@H](O)c2ccccc2)nn1)[Si](C)(C)c1ccc(OC)cc1	-2.11
[N-]=[N+]=NCc1ccccc1[C@@H]1OC(c2ccc(OCCCO)cc2)=N[C@]1(Cc1ccccc1N=[N+]=[N-])C(N)=O	0.12
CCCCCCCCCCC(O)C1C=CC2C(=O)N(c3ccccc3)C(=O)C2N1Nc1ccc([N+](=O)[O-])cc1 (centres undefined)	0.627
CC1(C)C(=O)C(c2ccccc2)=C2CN3C(=O)N(CCc4ccccc4)C(=O)C3(Cc3ccccc3)C=C21 (centres undefined)	-1.62
O=C1C2C=CC(C(O)c3cccc4ccccc34)N(n3cnnc3)C2C(=O)N1Cc1ccccc1 (centres undefined)	-0.879
CCN(CC)c1ccc(N2CC=CC34O[C@@H]5C=CCCOC(=O)C5[C@H]3C(=O)N(CCCO)[C@@H]4C2=O)cc1 (some centres undefined)	0.374
[N-]=[N+]=Nc1ccccc1C[C@]1(C(=O)N2CCCCC2)N=C(c2ccc(OCCCO)cc2)O[C@H]1c1ccccc1N=[N+]=[N-]	-1.08

Inquiry: Returns the measured z-score for the input compound. Input: COCCOC(=O)N1C(=O)[C@@]2(c3cc(C#CCC(C(=O)OC)C(=O)OC)ccc31)[C@H](c1ccc(OCCO)cc1)N1[C@H](c3ccccc3)[C@H](c3ccccc3)OC(=O)[C@H]1[C@@H]2C(=O)NC[C@H](O)c1ccccc1
Reply text: 1.17

Inquiry: Form field: reported z-score of CCOC(=O)C[C@H]1[C@H](OC(=O)c2ccc(C(=O)c3ccccc3)cc2)[C@@H](NC(=O)c2ccc3ccccc3n2)c2cc(OCCCO)ccc2N1C(=O)c1ccc2ccccc2n1
Reply text: 1.03

Inquiry: If you can, please state the reported z-score value of CC(C)C(O)C1C=CC2C(=O)N(C)C(=O)C2N1N1CCCCC1 (centres undefined) .
Reply text: -1.52

Inquiry: Which z-score value is on record for C[n+]1ccc2ccc(O)cc2c1 ?
Reply text: 0.0145

Inquiry: State the recorded z-score for this entry: O=C1C2C=CC(C(O)c3ccccn3)N(Nc3ccccc3F)C2C(=O)N1c1ccccc1 (centres undefined)
Reply text: -1.54

Inquiry: Looking for the measured z-score of Cc1ccc(S(=O)(=O)N2CC(C(=O)O)=CCC2c2ccccc2)cc1 (centres undefined) , can you help?
Reply text: -1.02

Inquiry: Any idea what z-score was measured for [N-]=[N+]=Nc1ccccc1[C@@H]1OC(c2ccc(OCCCO)cc2)=N[C@]1(CCS(=O)(=O)c1ccccc1)C(=O)N1CCCCC1 ?
Reply text: 1.52

Inquiry: Form field: reported z-score of COc1ccc(C(=O)Nc2cccc(CN3C(=O)[C@@]4(O[C@@H](CCn5cc([C@H](O)c6ccccc6)nn5)[C@H]([Si](C)(C)c5ccc(OC)cc5)[C@H]4C)c4ccccc43)c2)cc1
Reply text: 2.23

Inquiry: What value of measured z-score is listed for COc1ccc([Si](C)(C)[C@H]2[C@H](CC(=O)N3CCC[C@H]3CO)O[C@@]3(C(=O)N(c4ccccc4)c4ccccc43)[C@@H]2C)cc1 ?
Reply text: 1.96

* * *

Experiment: probe aWnt5a binding to arrayed compounds – biochemical, biotinylated probe, 635/667 nm fluorescence, primary screen (AID 1113);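 also: score merges 667 nm fluorescence intensity with signal-to-noise per printed feature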
Conditions: small-molecule microarray, higher = more signal
Class membership depends on composite z-score alone; the intervals are low band = under -0.1, middle band = from -0.1 up to -0.03, high band = -0.03 and over

Answered examples (5):
C=C(C(=O)CC[C@@H](OC(=O)c1cccnc1)c1ccc(CO)o1)C(C)C	low band
C=C(CCCC)C(=O)CC[C@@H](OC(=O)c1ccccc1-c1ccccc1C(=O)O)c1ccc(CO)o1	middle band
[N-]=[N+]=Nc1ccccc1[C@H]1OC(c2ccc(OCCCO)cc2)=N[C@@]1(CCS(=O)(=O)c1ccccc1)C(=O)N1CCOCC1	high band
CN(C)CCCN1C(=O)[C@@]2(c3ccc([N+](=O)[O-])cc3)CC(=O)N(C3CCCCC3)[C@@H]2c2ccc(CO)cc21	low band
O=C1O[C@H](c2ccccc2)[C@H](c2ccccc2)N2[C@H]1[C@@H](C(=O)Nc1nc3ccccc3s1)[C@]1(C(=O)Nc3ccc(C#CC4=CCCCC4)cc31)[C@H]2c1ccc(OCCO)cc1	low band

Could you now look at the following compound, please?
Inquiry: Hi there! Could you help me figure out the category for COc1cc2c(cc1O)C(c1ccc(CN3CCCC3)cc1)N(Cc1sc3ccccc3c1Cl)CC2 (stereo not given) please?
Reply text: high band
